System: SNB-75
ASSAY TEXT: NCI tumour cell line growth inhibition, 48 h
Calls of active or inactive are those of the source. Cut-off read from the data, not from the text of the source: active = GI50 up to about 1.1 µM and inactive = higher.
Return exactly one item of Yes = active, No = inactive

Past entries and their recorded results:
| COMPOUND | GROUP LABEL |
| --- | --- |
| O=C1OC(=O)c2c1cc1cc3c(cc1c2-c1ccc2c(c1)OCO2)OCO3 | No |
| C/C(=C\Cc1ccc(F)cc1)CCCCCC/C(C)=C/Cc1ccc(F)cc1 | No |
| c1ccc2c(c1)nc1n2CSC1 | No |
| C\C=C/C=C/C=C/C(=O)O | No |

Request: Given COc1cc(/C=C2\C(=O)N(c3ccc(Cl)cc3)C(c3ccccc3)S2(=O)=O)cc(OC)c1OC (centres undefined) , state the outcome it received in this test.
Response: No

Request: Hello, I am checking results. What call was entered for COc1cc2c(c(OC)c1OC)-c1ccc(SC)c(=O)cc1[C@@H](NC(=O)c1ccc(F)cc1)CC2 ?
Response: Yes

Request: Hi team, can someone confirm the assay call for CCOC(=O)C1CCn2c(nc3c(=O)n(C)c(=O)n(C)c32)S1 (centres undefined) ?
Response: No

Request: For this compound, state the assay outcome: O=C(CN1CCCCC1)N1CCc2c([nH]c3ccccc23)C1c1cccnc1 (centres undefined)
Response: No

Request: Fill in: this test's call for COc1ccc(C2ON(c3cccc(C)n3)CC=C2C)cc1 (centres undefined) is ___
Response: No

Request: Short answer needed: outcome of this test for C/C(=N\NC(=O)c1ccncc1)c1sc(-n2nc(-c3ccccc3)cc2-c2ccccc2)nc1C ?
Response: No

Request: Hi, do you know how C=C1CC[C@](C)(O)[C@@]2(C)CC[C@H]3C(=C(C)C)C(=O)C[C@]3(C)C[C@H]12 came out in this test?
Response: No

Request: Check the results log: what was the call for O=C1N/C(=N/N=C/C(O)C(O)C(O)C(O)CO)N/C1=C\c1cccs1 (centres undefined) ?
Response: No

Request: Per the assay record, what outcome was assigned to C=CCCCCC1CCC2CCC(CCCCC=C)N12 (centres undefined) ?
Response: No

====

Test system: SF-295
ASSAY TEXT: NCI tumour cell line growth inhibition, 48 h
Active and inactive are the calls of the source. No stated cut-off is given here; in the data, active = GI50 up to about 1.1 µM and inactive = higher.
Log the outcome using a class from 1 = active, 0 = inactive

Request: Each molecule tested received a call. Report the one for C=CCCCCC1CCC2CCC(CCCCC=C)N12 (configuration not stated) .
Response: 0

Request: Outcome logged for O=C(OCC(Cl)(Cl)Cl)O[C@@H]1CCCC1(c1ccccc1)c1ccccc1 in this assay:
Response: 0

Request: Outcome? COC(=O)C(=CNC(N)=O)C(=O)OC
Response: 0

Request: What call does the record list for COC(=O)C1=C(C(=O)OC)SC2(S1)C(C(=O)OC)=C(C(=O)OC)Sc1c2ss/c1=N/C(C)(C)C ?
Response: 0

Request: Please state the recorded outcome for this molecule: O=C1c2cc(Cl)ccc2-n2c(noc2=O)C2CSCN12 (configuration not stated)
Response: 0

====

Test system: K562
ASSAY TEXT: NCI tumour cell line growth inhibition, 48 h
Calls of active or inactive are those of the source. Cut-off read from the data, not from the text of the source: active = GI50 up to about 1.1 µM and inactive = higher.
Your answer must be one of the following: true (active), false (inactive)

| MOLECULE | GROUP LABEL |
| --- | --- |
| COc1cc2c(c(OC)c1OC)-c1ccc(OC)c(=O)cc1C(NC(=O)COc1ccccc1)CC2 (stereo not given) | true |
| N=C(N)SCc1nc(-c2ccc(Cl)cc2)no1 | false |
| O=C1c2cc(Cl)ccc2-n2c(noc2=O)C2CSCN12 (stereo not given) | false |
| COc1cc2c(c(OC)c1OC)-c1ccc(SC)c(=O)cc1[C@@H](NC(=O)c1ccc(F)cc1)CC2 | true |

Now let's try a different one.
Request: Please let me know the test result on file for CC(C)=CC1CCc2ccccc2N1S(=O)(=O)c1ccc(C)cc1 (stereo not given) .
Response: true

====

Tested on: MCF7
ASSAY TEXT: NCI tumour cell line growth inhibition, 48 h
Calls of active or inactive are those of the source. Rule as the data show it: active = GI50 up to about 1.1 µM and inactive = higher.
Mark one answer only. Choices: yes (1) (active), no (0) (inactive)

Would you please look over these solved cases?
| COMPOUND | GROUP LABEL |
| --- | --- |
| Nc1ccc(S(=O)(=O)Nc2nccs2)cc1 | no (0) |
| COc1ccc2c(c1)C(N)=C(c1ccccc1OC)C2=O | no (0) |
| CC(C)C1(O)C(=O)N(c2c(F)c(F)c(F)c(F)c2F)C(=S)N1CCSc1ccccc1 (stereo not given) | no (0) |
| C=C(C)C(=O)O[C@H]1CC2=CC(CC(C)=C[C@H]3OC(=O)C(=C)C13)OC2=O (stereo not given in full) | no (0) |
| Nc1ccn(C2CC3OCC3O2)c(=O)n1 (stereo not given) | no (0) |
| COC(=O)[C@]12C3=C(O)C(=O)C[C@H]1OC[C@H]2C=CC3 | no (0) |
| [N-]=[N+]=NC1(c2ccccc2)C(=O)c2cccc3c4ccccc4n(c23)C1=O (stereo not given) | no (0) |
| CCOC(=O)/C=C(\C(=O)OCC)n1ccc(=O)n(Cc2cnnn2CCCCOC(C)=O)c1=O | no (0) |
| COc1cc(/C=C/C(=O)CC(=O)/C=C/c2ccc(O)c(OC)c2)ccc1O | no (0) |
| NC(=O)Cn1c(=O)oc2cc(C(=O)CN3CCOCC3)ccc21 | no (0) |

Request: Fill in: this test's call for O=c1ccn(C2OC(COC3CCCCO3)C(OC3CCCCO3)C2OC2CCCCO2)c(=O)n1-c1ccccc1 (stereo not given) is ___
Response: no (0)

Request: In this assay, the call recorded for COc1cc(OC)nc(-n2c(N)c(C(=O)O)c3ccc([N+](=O)[O-])cc3c2=O)n1 was what?
Response: no (0)

Request: Tell me the recorded outcome of this test for CC(C)OP(=O)(c1ccccc1)c1ccc2c(c1)OCCOCCOCCOCCO2 (stereo not given) .
Response: no (0)

Request: What is the recorded call for this compound in the test? C/C(=N\NC(=O)N/N=C(\C)c1ccccn1)c1ccccn1
Response: no (0)

Request: Would you mind telling me which call this test gave CCCCCCCCCCCCOCCOCCOCCOCCOCCOCC(=O)NC(Cc1ccccc1)C(=O)Oc1ccc([N+](=O)[O-])cc1 (stereo not given) ?
Response: no (0)

Request: Any idea what this test logged for O=C(c1cccc2ccccc12)C1S(=O)(=O)OCCOS1(=O)=O ?
Response: no (0)

====

This listing pairs compounds with measured GI50.
System: TK-10
ASSAY TEXT: NCI tumour cell line growth inhibition, 48 h
Calls of active or inactive are those of the source. Cut-off read from the data, not from the text of the source: active = GI50 up to about 1.1 µM and inactive = higher.

| COMPOUND | VALUE TYPE | ENDPOINT RESULT |
| --- | --- | --- |
| [N-]=[N+]=NC1C(O)C(CO)OC1n1ccc(=O)[nH]c1=O (stereo not given) | GI50 | > 875 µM (inactive) |
| COc1cc2c(cc1OC)C1c3ccccc3C(C#N)(C2)N(C(=O)c2ccccc2)C1O (stereo not given) | GI50 | 93.1 µM (inactive) |
| CC1(C)C(=O)C=CC2(C)C1CC(O)C1(C)C2CCC2(C)C(c3ccoc3)OC(=O)C3OC321 (stereo not given) | GI50 | 16 µM (inactive) |
| COC(=O)[C@]12C3=C(O)C(=O)C[C@H]1OC[C@H]2C=CC3 | GI50 | > 100 µM (inactive) |
| COc1cc(/C=C/C(=O)CC(=O)/C=C/c2ccc(O)c(OC)c2)ccc1O | GI50 | 14.2 µM (inactive) |

GET /value?item= Cc1ccc(/C=C2\CCCC\C2=N\O)cc1 &field=GI50 returns > 100 µM (inactive)

Notebook: C/C(=N/NC(=O)c1ccccc1S(N)(=O)=O)C(CN1CCCCC1)C(C1=C(O)C2C=CC=CC2OC1=O)c1ccccc1 (stereo not given) , GI50 read as > 100 µM (inactive)

For record CC1CCCC(C(O)CC2CC(=O)N(c3ccccc3)C(=O)C2)C1=O (stereo not given) the listed GI50 is > 100 µM (inactive)

Per the records, this compound ( O=C1O/C(=C\c2ccc(O)cc2)C(c2ccc(O)c(Cl)c2)=C1Br ) has GI50 equal to 18.9 µM (inactive)

Entry Fc1cccc(/C=N/C23CC4CC(CC(C4)C2)C3)c1 , GI50 reported as > 100 µM (inactive)

====

Test system: SF-268
ASSAY TEXT: NCI tumour cell line growth inhibition, 48 h
Activity calls are given as the source filed them. No stated cut-off is given here; in the data, active = GI50 up to about 1.1 µM and inactive = higher.
GI50 overview

The examples below pair each entry with its known result.
| COMPOUND | ENDPOINT RESULT |
| --- | --- |
| CC1(O)C=CC(=O)C=C1 | 13.9 µM (inactive) |
| S=C1/C(=N/c2ccccc2)N(C2CCCCC2)/C(=N\C2CCCCC2)N1c1ccccc1 | > 100 µM (inactive) |

According to the records, this compound Cn1cc(C2(C)CC(C)(C)c3c2n(C)c2ccccc32)c2ccccc21 (centres undefined) displays GI50 of > 100 µM (inactive)

// GI50 lookup, compound = CC1(C)CC(=O)C(=CN2C(=O)CNC2=S)C(=O)C1 , result: > 100 µM (inactive)
